Sourced from patent US20100136030A1

Molecular target: T1, human OX40 (form used in the assay not stated) (human, UniProt P43489 29-214, limits assumed)
T1 sequence (looked up): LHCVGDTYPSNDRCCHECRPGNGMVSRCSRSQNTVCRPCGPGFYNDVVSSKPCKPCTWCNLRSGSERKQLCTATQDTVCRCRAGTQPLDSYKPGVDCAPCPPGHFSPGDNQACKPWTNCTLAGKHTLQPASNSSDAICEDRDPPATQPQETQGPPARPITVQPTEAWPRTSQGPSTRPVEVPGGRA
Test: Biacore, format not described
Items are presented alongside their recorded kon.
Answer in M⁻¹ s⁻¹, number only, no unit symbol.

[
  {
    "Binder": "humanized A10 whole antibody D (A10 LC (SH) / A10 humanized) (antibody, V domains shown, also called A10-D; A10 D) VH: QVQLVQSGAEVKKPGASVKVSCKASGYTFTSYWMHWVRQAPGQGLEWMGEIHPKSGNSNYNEKFKGRVTMTRDTSTSTVYMELSSLRSEDTAVYYCARGPEYSNFWFAYWGQGTLVTVSS VL: DIVMTQSPDSLAVSLGERATINCKASQSVDYDGDSYMHWYQQKPGQPPKLLIYAASNLESGVPDRFSGSGSGTDFTLTISSLQAEDVAVYYCHQSNEDPWTFGQGTKVEIK",
    "Result Unit": "M⁻¹ s⁻¹",
    "Result": 140000
  },
  {
    "Binder": "humanized A10 whole antibody E (A10 LC (SN) / A10 humanized) (antibody, V domains shown) VH: QVQLVQSGAEVKKPGASVKVSCKASGYTFTSYWMHWVRQAPGQGLEWMGEIHPKSGNSNYNEKFKGRVTMTRDTSTSTVYMELSSLRSEDTAVYYCARGPEYSNFWFAYWGQGTLVTVSS VL: DIVMTQSPDSLAVSLGERATINCKASQSVDYDGDSYMNWYQQKPGQPPKLLIYAASNLESGVPDRFSGSGSGTDFTLTISSLQAEDVAVYYCHQSNEDPWTFGQGTKVEIK",
    "Result Unit": "M⁻¹ s⁻¹",
    "Result": 151000
  },
  {
    "Binder": "humanized A10 whole antibody F (A10 LC (TH) hu 336 / A10 humanized) (antibody, V domains shown, also called A10-F; humanized variant A10-F) VH: QVQLVQSGAEVKKPGASVKVSCKASGYTFTSYWMHWVRQAPGQGLEWMGEIHPKSGNSNYNEKFKGRVTMTRDTSTSTVYMELSSLRSEDTAVYYCARGPEYSNFWFAYWGQGTLVTVSS VL: DIVLTQSPTSLAVSLGQRATISCKASQTVDYDGDSYMHWYQQKPGQPPKLLIYAASNLESGVPDRFSGSGSGTDFTLTISSLQAEDVAVYYCHQSNEDPWTFGQGTKVEIK",
    "Result Unit": "M⁻¹ s⁻¹",
    "Result": 141000
  },
  {
    "Binder": "humanized A10 whole antibody C (A10 LC (TH) hu 336 / A10 L70) (antibody, V domains shown) VH: QVQLVQSGAEVKKPGASVKVSCKASGYTFTSYWMHWVRQAPGQGLEWMGEIHPKSGNSNYNEKFKGRVTLTRDTSTSTVYMELSSLRSEDTAVYYCARGPEYSNFWFAYWGQGTLVTVSS VL: DIVMTQSPDSLAVSLGERATINCKASQTVDYDGDSYMHWYQQKPGQPPKLLIYAASNLESGVPDRFSGSGSGTDFTLTISSLQAEDVAVYYCHQSNEDPWTFGQGTKVEIK",
    "Result Unit": "M⁻¹ s⁻¹",
    "Result": 116000
  },
  {
    "Binder": "humanized A10 whole antibody B (A10 LC (SN) / A10 L70) (antibody, V domains shown) VH: QVQLVQSGAEVKKPGASVKVSCKASGYTFTSYWMHWVRQAPGQGLEWMGEIHPKSGNSNYNEKFKGRVTLTRDTSTSTVYMELSSLRSEDTAVYYCARGPEYSNFWFAYWGQGTLVTVSS VL: DIVMTQSPDSLAVSLGERATINCKASQSVDYDGDSYMNWYQQKPGQPPKLLIYAASNLESGVPDRFSGSGSGTDFTLTISSLQAEDVAVYYCHQSNEDPWTFGQGTKVEIK",
    "Result Unit": "M⁻¹ s⁻¹",
    "Result": 170000
  }
]

// below: kon requested for another binder
Prompt: Need kon of humanized A10 whole antibody A (A10 LC (SH) / A10 L70) (antibody, V domains shown) VH: QVQLVQSGAEVKKPGASVKVSCKASGYTFTSYWMHWVRQAPGQGLEWMGEIHPKSGNSNYNEKFKGRVTLTRDTSTSTVYMELSSLRSEDTAVYYCARGPEYSNFWFAYWGQGTLVTVSS VL: DIVMTQSPDSLAVSLGERATINCKASQSVDYDGDSYMHWYQQKPGQPPKLLIYAASNLESGVPDRFSGSGSGTDFTLTISSLQAEDVAVYYCHQSNEDPWTFGQGTKVEIK , thanks.
Completion: 131000
